Target: Ubiquitin carboxyl-terminal hydrolase 30 (Homo sapiens)
Test: inhibitors of human USP30 deubiquitinase (AID 1645860)
Conditions: purified USP30, Ub-rhodamine cleavage fluorescence; at 25 µM
The whole screen tested about 47,000 compounds, of which about 2,500 (5.3%) were called active. Rule as the data show it: active = inhibition above about 30%; inactive = the rest. Only a selection was taken, and actives are over-represented in it overall.
Your answer must be one of the following: active, inactive

Completed entries (count: 5):
Molecule: COc1cccc(C(=O)NCc2ccc(-c3nc4cnccc4o3)cc2)c1
Qualitative label: active
//
Molecule: CC(C)c1noc(-c2ccc(OCC(=O)Nc3ccccc3Br)cc2)n1
Qualitative label: active
//
Molecule: CCN1CCN(C(=O)c2cnn(-c3cc(-c4nc(C5CC5)no4)ccn3)c2C)CC1
Qualitative label: inactive
//
Molecule: O=c1c(S(=O)(=O)c2cc(F)cc(F)c2)c[nH]c2ccc(F)cc12
Qualitative label: inactive
//
Molecule: O=C(Cc1nc(-c2ccccn2)n[nH]1)NC1CCCCCC1
Qualitative label: inactive

Now look at this one.
[ask] Per the assay record, what outcome was assigned to COc1ccc(N2C(=O)N(Cc3ccccc3)S(=O)(=O)c3cccnc32)cc1 ?
[reply] inactive

----------
Biological target: Ubiquitin carboxyl-terminal hydrolase 30 (Homo sapiens)
Assay: inhibitors of human USP30 deubiquitinase (AID 1645860)
Settings: purified USP30, Ub-rhodamine cleavage fluorescence; at 25 µM; hits give high values
Among all 47,000 compounds or so, about 2,500 (5.3%) were called active. The list comes from a sample in which actives are over-represented; it also holds close analogues and randomly drawn compounds.
Observed property: inhibition (%)
Reply numerically in %, unit not repeated.

Some entries whose results are on file:
Mol: Cc1nc(-c2ccc(C)c(S(=O)(=O)NCc3ccccc3Cl)c2)cs1
Endpoint value: 34.4
//
Mol: CCn1c(SCC(=O)Nc2ccc3c(c2)OCCO3)nnc1C(C)C
Endpoint value: 9.74
//
Mol: O=C(NCc1ccc2c(c1)OCO2)C1=CCN(Cc2ccccc2)CC1
Endpoint value: -38.4

[ask] Dear colleague, I am looking for the recorded inhibition of the following molecule: Cc1c(C(=O)O)[nH]c2ccccc12
[reply] -68.1

----------
Molecular target: Ubiquitin carboxyl-terminal hydrolase 30 (Homo sapiens) (UniProt Q70CQ3)
Sequence (Q70CQ3 whole entry, looked up): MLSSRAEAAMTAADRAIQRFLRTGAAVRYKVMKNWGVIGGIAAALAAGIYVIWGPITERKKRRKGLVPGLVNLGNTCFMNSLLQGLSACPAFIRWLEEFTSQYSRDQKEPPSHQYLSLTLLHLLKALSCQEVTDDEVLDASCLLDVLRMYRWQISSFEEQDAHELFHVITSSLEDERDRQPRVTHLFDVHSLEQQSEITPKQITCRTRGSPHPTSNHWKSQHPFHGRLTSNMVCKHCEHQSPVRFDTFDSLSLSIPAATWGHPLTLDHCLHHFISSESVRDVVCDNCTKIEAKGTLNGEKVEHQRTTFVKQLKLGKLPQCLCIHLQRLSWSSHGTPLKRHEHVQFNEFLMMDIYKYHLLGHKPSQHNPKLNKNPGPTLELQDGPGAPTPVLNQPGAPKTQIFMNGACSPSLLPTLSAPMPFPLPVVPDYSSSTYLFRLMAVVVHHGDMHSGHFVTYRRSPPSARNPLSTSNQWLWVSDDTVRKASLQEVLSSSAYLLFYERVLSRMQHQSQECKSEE
Assay: inhibitors of human USP30 deubiquitinase (AID 1645860)
Settings: purified USP30, Ub-rhodamine cleavage fluorescence; at 25 µM; hits give high values
About 2,500 (5.3%) of roughly 47,000 compounds were called active. This is one part of a sample in which actives are shown more often than they occur.
inhibition by entry:
Answer format: numeric, % implied, no suffix.

Recorded inhibition, per entry:
Compound: Cc1cccc(-c2cnc(C(O)c3ccc4c(c3)OCO4)[nH]2)c1 (configuration not stated)
Unit descriptor: %
Endpoint value: -30.9
--
Compound: O=C(Cc1ccccc1)N1CCN(c2ccc(N3CCCC3)nn2)CC1
Unit descriptor: %
Endpoint value: -15.8
--
Compound: Cc1cc(C)n(-c2ccc(C(=O)Nc3ccccc3C(C)C)nn2)n1
Unit descriptor: %
Endpoint value: 34.9
--
Compound: CC1CCCN(c2ccc(-c3nc(-c4cccnc4)no3)cc2[N+](=O)[O-])C1 (configuration not stated)
Unit descriptor: %
Endpoint value: -2.58

[ask] Any idea what its inhibition is? The compound is Cc1ccc(CNC(=O)CCCn2c(=O)c3sccc3n(CC(=O)OCc3ccccc3)c2=O)cc1
[reply] 70.7

[ask] Recorded inhibition for O=C(Nc1ccc(N2CCN(C3CCCC3)C2=O)nc1)c1cccnc1 , please?
[reply] -14.2

[ask] Sample Fc1cc(F)cc(CNc2cc(-n3ccnc3)ncn2)c1 — what was its inhibition?
[reply] 0.587

[ask] Entry under review: Cc1cccc(CN2CCN(CC(=O)NCCN3CCOCC3)C2=O)c1 . Reported inhibition?
[reply] -2.8

[ask] Returns the measured inhibition for the input compound. Input: Cc1nn(-c2ccc(F)cc2F)c2c1C(C(=O)c1cc3ccccc3o1)CC(=O)N2 (configuration not stated)
[reply] 33.3

[ask] Looking for the measured inhibition of O=C(Cn1c(-c2nc(-c3ccc(F)cc3)no2)cccc1=O)N1CCCC1 , can you help?
[reply] 11.4

[ask] // query inhibition value for entry O=C(Cn1cccc(-c2nc(-c3ccccc3)no2)c1=O)Nc1ccccc1F
[reply] -12.8

[ask] Consider the compound shown here: Cc1cccc(N2CC(C)Cn3c2nc2c3c(=O)n(CC(=O)OCc3ccccc3)c(=O)n2C)c1 (configuration not stated) What is its recorded inhibition?
[reply] -36.6

[ask] Please give the measured inhibition for this compound: COc1ccc2ncc(S(=O)(=O)c3ccccc3)c(N3CCN(c4cccc(C)c4C)CC3)c2c1
[reply] -1.48

[ask] Query: inhibition; subject: C=C1CCC2[C@](C)(CCC[C@]2(C)C(=O)OC)[C@H]1CCc1ccoc1/C=C/C(=O)O (some centres not stated)
[reply] 61.8

[ask] Sample O=c1c2cnc(N3CCCC3)nc2ccn1-c1ccccc1 — what was its inhibition?
[reply] 31

[ask] Could you tell me which inhibition is on file for Cc1cc(Nc2ncc(C)s2)cc(C2CCCN2c2ncccn2)n1 (configuration not stated) ?
[reply] -49.2

[ask] Suppose we examine the compound COc1ccc(-c2cc(=O)oc3c(C)c(OCc4ccccc4F)ccc23)cc1 ; what inhibition value has been reported?
[reply] 44

[ask] Which inhibition value belongs to O=c1ccc(-c2nc(-c3cnccn3)no2)cn1Cc1cccc(Br)c1 ?
[reply] -4.12

[ask] May I ask what inhibition has been recorded for Cc1nn(-c2ccc(F)cc2)c2c1C(C(=O)c1cc3ccccc3o1)CC(=O)N2 (configuration not stated) ?
[reply] -18.2

[ask] Param item = CC(C)=CCC(O)C1=CC(=O)c2c(O)ccc(O)c2C1=O (configuration not stated) ; retrieve measured inhibition.
[reply] 74.5

[ask] For the compound shown here, CC(CCc1ccccc1)NCc1c(C(=O)O)n(Cc2ccccc2F)c2ccccc12 (configuration not stated) , give the reported inhibition.
[reply] 33.3

[ask] If you can, please state the reported inhibition value of COc1ccc2ncc(S(=O)(=O)c3ccccc3)c(N3CCOCC3)c2c1 .
[reply] -25.7

[ask] Which inhibition value is on record for CCc1ccc(NC(=O)N2CCC3(CC2)COc2ccccc2S(=O)(=O)N(C)C3)cc1 ?
[reply] -0.131

----------
Target: Ubiquitin carboxyl-terminal hydrolase 30 (Homo sapiens)
Assay: inhibitors of human USP30 deubiquitinase (AID 1645860)
Conditions: purified USP30, Ub-rhodamine cleavage fluorescence; at 25 µM
Among all 47,000 compounds or so, about 2,500 (5.3%) were called active. Rule as the data show it: active = inhibition above about 30%; inactive = the rest. Many of the other results were omitted from the sample, so actives are more common in it than they were.
The reply should be one of these categories: t for active, f for inactive

Molecule: Cc1cc2n(n1)CCCN2C(=O)CCC(=O)Nc1ccc(F)cc1F
Qualitative label: f

Molecule: CCN1CCN(S(=O)(=O)c2ccc3c(c2)CC(C)N3C(=O)C2CC2)CC1 (stereo unspecified)
Qualitative label: f

Molecule: Cc1ccc(S(=O)(=O)N(CC(=O)NC(C)c2ccccc2)Cc2ccccc2F)cc1 (stereo unspecified)
Qualitative label: t

Molecule: COc1cccc(CNC(=O)C2(C)Oc3cccnc3N(C)C2=O)c1 (stereo unspecified)
Qualitative label: f

[ask] So what was the verdict on Cc1cncc(C(=O)N[C@@H]2CC[C@H]3Oc4ccccc4N[C@H]3[C@@H]2O)c1 in this test?
[reply] f

[ask] // return assay outcome for Cc1ccc(-n2c(SCC(=O)N3CCOCC3)nnc2-c2cc3ccccc3o2)cc1
[reply] f

[ask] Which result was noted for this molecule in the test: COc1cc(C)c(CN2CCC(c3cc(=O)[nH]c(C)n3)C2)cc1C (stereo unspecified)
[reply] f

[ask] Tell me the recorded outcome of this test for CC(=O)Nc1ccc(S(=O)(=O)NCc2ccc(C(=O)NCc3ccc(C)cc3)cc2)cc1 .
[reply] f

[ask] Recorded call for CCN1C(=O)c2c(C(=O)NC3CC3)ncn2CC1(C)C(=O)NC1CCCC1 (stereo unspecified) ?
[reply] f

[ask] How did this test come out for O=S(=O)(Nc1ccccc1Cc1ccccc1)c1ccccc1F ?
[reply] f

[ask] For Clc1ccc(C[n+]2cc(-c3ccc(Cl)cc3)n3c2CCC3)cc1 , what call appears in the results of this test?
[reply] t

[ask] Outcome? Cc1ccc(N(C)C(=O)CCn2cnc3ccccc3c2=O)cc1
[reply] f

[ask] Call for entry COc1cc(OC)cc(-c2nnc(NC(=O)c3ccc([N+](=O)[O-])o3)o2)c1 :
[reply] t

[ask] Just curious, what result did COc1cccc(NC(=O)Nc2nccn(-c3ccccc3)c2=O)c1 get here?
[reply] t

[ask] Call for entry COc1ccc(C(=O)NCC(=O)Nc2nc3ccccc3[nH]2)c(C)c1 :
[reply] f

[ask] What is the recorded call for this molecule in the test? O=C(Cn1cnc2ccccc21)N1CCCc2ccccc21
[reply] f

[ask] Just curious, what result did COc1ccccc1N(CC(=O)NCc1cccnc1)S(=O)(=O)c1ccc(C)cc1 get here?
[reply] f

[ask] How was Cc1ccccc1CC(=O)Nc1ccc(-n2ccnc2C)nc1 classified in this test?
[reply] f
